Sourced from patent US20230127046A1

Parameter pIC50: see the listing below.
# Measurement Target: recombinant human G9a protein (Homo sapiens)
# Construct: purchased BPS Bioscience Inc. #51001
# Sequence (Q96KQ7 785-1210 limits assumed): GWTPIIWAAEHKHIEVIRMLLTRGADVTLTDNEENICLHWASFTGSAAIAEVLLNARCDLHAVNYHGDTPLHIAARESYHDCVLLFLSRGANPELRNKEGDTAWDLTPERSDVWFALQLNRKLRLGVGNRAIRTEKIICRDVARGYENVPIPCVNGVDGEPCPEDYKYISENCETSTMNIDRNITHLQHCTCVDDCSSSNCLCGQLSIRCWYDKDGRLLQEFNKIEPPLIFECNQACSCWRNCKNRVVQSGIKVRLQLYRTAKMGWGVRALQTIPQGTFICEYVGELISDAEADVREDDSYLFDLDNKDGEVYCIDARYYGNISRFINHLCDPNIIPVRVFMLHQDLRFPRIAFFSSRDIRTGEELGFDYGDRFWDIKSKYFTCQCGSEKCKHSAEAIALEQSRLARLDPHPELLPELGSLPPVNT
# Protocol Text: G9a inhibitory activity test (ALPHA)
# Format: biochemical
# Details: read-out: Inhibitory activity (G9a IC50)
pIC50: −log10 of the molar value.
Experimental Endpoint: pIC50

>  <Compound>
COc1ccc(NC(=O)C(CCC2CC2)NC(=O)c2ccc(Nc3ccncc3)cc2Cl)cn1 (stereo not shown) [Example 6-77]

>  <Result>
> 7.30

$$$$
>  <Compound>
CCCCC(NC(=O)c1cc2cc(OC)c(OC)cc2[nH]1)C(=O)Nc1ccc(OC2CCN(C)CC2)nc1 (stereo not shown) [Example 6-97]

>  <Result>
≤ 6.70

$$$$
>  <Compound>
CCCC[C@@H](CNc1ccc(N2CCN(C)CC2)cc1)NC(=O)c1[nH]c2c(c1C)C(=O)CC(C)(C)C2 [Example 17-2]

>  <Result>
≤ 6.70

$$$$
>  <Compound>
CCc1ccc(NC(=O)C(CCC2CC2)NC(=O)c2ccc(Nc3ccncc3)cc2)cn1 (stereo not shown) [Example 6-86]

>  <Result>
> 7.30

$$$$

---

# Measurement Target: recombinant human G9a protein (Homo sapiens)
# Construct: purchased BPS Bioscience Inc. #51001
# Protocol Text: G9a inhibitory activity test (ALPHA)
# Assay type: biochemical
# Details: biotinylated histone H3 peptide (1-21), SAM, read-out: Inhibitory activity (G9a IC50 value)
pIC50: −log10 of the molar value.

>  <Molecule>
CCCCC(NC(=O)c1[nH]c2c(c1C)C(=O)CC(C)(C)C2)C(=O)Nc1cccc2[nH]ccc12 (stereo not shown)

>  <Measurement Target>
recombinant human G9a protein (Homo sapiens)

>  <pIC50>
≤ 6.70

$$$$
>  <Molecule>
CCCCC(NC(=O)c1[nH]c2c(c1C)C(=O)CC(C)(C)C2)C(=O)NC1CCN(CCCN2CCCC2)CC1 (stereo not shown)

>  <Measurement Target>
recombinant human G9a protein (Homo sapiens)

>  <pIC50>
≤ 6.70

$$$$
>  <Molecule>
CCCCC(NC(=O)c1[nH]c2c(c1C)C(=O)CC(C)(C)C2)C(=O)Nc1cccc(CN(CC)CC)c1 (stereo not shown)

>  <Measurement Target>
recombinant human G9a protein (Homo sapiens)

>  <pIC50>
> 7.30

$$$$
>  <Molecule>
CCCCC(NC(=O)c1[nH]c2c(c1C)C(=O)CC(C)(C)C2)C(=O)NC(C)(C)c1ccccc1 (stereo not shown)

>  <Measurement Target>
recombinant human G9a protein (Homo sapiens)

>  <pIC50>
≤ 6.70

$$$$
